System: MDA-MB-468
TEST_DESCRIPTION: drug sensitivity score (DSS), CellTiter-Glo (DSS (AUC-based score)); higher = stronger drug effect (viability inhibition or cytotoxicity); extreme values may be limits of the assay
CONDITION_NOTES: incubation time: 72 h
Reported drug sensitivity score is given for each of the following compounds.

COMPOUND	ASSAY_SYSTEM	drug sensitivity score
CCCCC/C=C/C=C1/C(=O)C=C[C@@H]1C/C=C\CCCC(=O)O [15D-PGJ2]	MDA-MB-468	0
C[C@]12O[C@H](C[C@]1(O)CO)n1c3ccccc3c3c4c(c5c6ccccc6n2c5c31)CNC4=O [Lestaurtinib]	MDA-MB-468	11.8
CC(C)N(CCCNC(=O)Nc1ccc(C(C)(C)C)cc1)C[C@H]1O[C@@H](n2cc(Br)c3c(N)ncnc32)[C@H](O)[C@@H]1O [SGC0946]	MDA-MB-468	2.46
Nc1ccccc1NC(=O)c1ccc(CNc2nccc(-c3cccnc3)n2)cc1 [Mocetinostat]	MDA-MB-468	8.18
COc1cc(CCc2cc(NC(=O)c3ccc(N4CC(C)NC(C)C4)cc3)n[nH]2)cc(OC)c1 (stereo not given) [AZD4547]	MDA-MB-468	0

* * *

Tested on: MFM-223
TEST_DESCRIPTION: normalised response (% of control), CellTiter-Glo; higher = more viable cells (100 = DMSO, 0 = benzethonium chloride kill control)
CONDITION_NOTES: incubation time: 72 h
Reported normalised response is given for each of the following compounds.

COMPOUND	normalised response (%)
C[C@]12C=CC(=O)C=C1CC[C@@H]1[C@@H]2[C@@H](O)C[C@@]2(C)[C@H]1CC[C@]2(O)C(=O)CO [Prednisolone] (1 nM)	102
CC(C)N(CCCNC(=O)Nc1ccc(C(C)(C)C)cc1)C[C@H]1O[C@@H](n2cc(Br)c3c(N)ncnc32)[C@H](O)[C@@H]1O [SGC0946] (1000 nM)	94
Cc1cccc(-c2nn3c(c2-c2ccnc4ccc(C(N)=O)cc24)CCC3)n1 [Galunisertib] (1 nM)	107

* * *

Test system: HCC1937
TEST_DESCRIPTION: normalised response (% of control), CellTiter-Glo; higher = more viable cells (100 = DMSO, 0 = benzethonium chloride kill control)
CONDITION_NOTES: incubation time: 72 h
Reported normalised response is given for each of the following compounds.

COMPOUND	MEASURE_UNIT	normalised response
CO[C@@H](C(=O)N1Cc2[nH]nc(NC(=O)c3ccc(N4CCN(C)CC4)cc3)c2C1)c1ccccc1 [Danusertib] (100 nM)	%	96.8
CNC(=O)c1cc(Oc2ccc(NC(=O)Nc3ccc(Cl)c(C(F)(F)F)c3)cc2)ccn1 [Sorafenib] (10 nM)	%	95.2
O=C(CCBr)N1CCN(C(=O)CCBr)CC1 [Pipobroman] (100 nM)	%	106

* * *

Tested on: HCC1599
TEST_DESCRIPTION: normalised response (% of control), CellTiter-Glo; higher = more viable cells (100 = DMSO, 0 = benzethonium chloride kill control)
CONDITION_NOTES: incubation time: 72 h
Reported normalised response is given for each of the following compounds.

COMPOUND	normalised response [%]
CCN(CC)CCNC(=O)c1c(C)[nH]c(/C=C2\C(=O)Nc3ccc(F)cc32)c1C [Sunitinib] (100 nM)	107
CO[C@@H](C(=O)N1Cc2[nH]nc(NC(=O)c3ccc(N4CCN(C)CC4)cc3)c2C1)c1ccccc1 [Danusertib] (1 nM)	121
CCN(CC)CCNC(=O)c1c(C)[nH]c(/C=C2\C(=O)Nc3ccc(F)cc32)c1C [Sunitinib] (0.1 nM)	94.7
COc1ccc(-c2cc3c(C)nc(N)nc3n([C@H]3CC[C@H](OCCO)CC3)c2=O)cn1 (1 nM)	104
Nc1cccc2c1CN(C1CCC(=O)NC1=O)C2=O (stereo unspecified) [Lenalidomide] (1 nM)	106
Cn1cc(CNCC2CCN(c3ncc(C(=O)NO)cn3)CC2)c2ccccc21 [Quisinostat] (0.1 nM)	92.9

* * *

Tested on: Hs578T
TEST_DESCRIPTION: normalised response (% of control), CellTox Green; higher = less cell death (100 = DMSO, 0 = benzethonium chloride kill control)
CONDITION_NOTES: incubation time: 72 h
Reported normalised response is given for each of the following compounds.

COMPOUND	normalised response, %
Nc1cccc2c1CN(C1CCC(=O)NC1=O)C2=O (centres undefined) [Lenalidomide] (1000 nM)	94.5
CC[C@@]1(O)C(=O)OCc2c1cc1n(c2=O)Cc2cc3c(CN(C)C)c(O)ccc3nc2-1 [Topotecan] (10000 nM)	102
COc1ccc(-c2cc3c(C)nc(N)nc3n([C@H]3CC[C@H](OCCO)CC3)c2=O)cn1 (100 nM)	89.6
CCCCC/C=C/C=C1/C(=O)C=C[C@@H]1C/C=C\CCCC(=O)O [15D-PGJ2] (8 nM)	113
c1cc(CN2CCCNCCNCCCNCC2)ccc1CN1CCCNCCNCCCNCC1 [Plerixafor] (10000 nM)	102
CO[C@@H](C(=O)N1Cc2[nH]nc(NC(=O)c3ccc(N4CCN(C)CC4)cc3)c2C1)c1ccccc1 [Danusertib] (10000 nM)	-40.1
Cc1c(Cn2c(C)nc3c(C(=O)O)cc(N4CCOCC4)cc32)cccc1C(F)(F)F (1000 nM)	105
O=C(Nc1c[nH]nc1-c1nc2ccc(CN3CCOCC3)cc2[nH]1)NC1CC1 [AT9283] (10 nM)	89.3
Nc1ccccc1NC(=O)c1ccc(CNc2nccc(-c3cccnc3)n2)cc1 [Mocetinostat] (10000 nM)	48.6
C[C@]12O[C@H](C[C@]1(O)CO)n1c3ccccc3c3c4c(c5c6ccccc6n2c5c31)CNC4=O [Lestaurtinib] (100 nM)	96.2
COc1cc(CCc2cc(NC(=O)c3ccc(N4CC(C)NC(C)C4)cc3)n[nH]2)cc(OC)c1 (centres undefined) [AZD4547] (10 nM)	103
CCN(CC)CCNC(=O)c1c(C)[nH]c(/C=C2\C(=O)Nc3ccc(F)cc32)c1C [Sunitinib] (1000 nM)	95.9
COc1ccc(-c2cc3c(C)nc(N)nc3n([C@H]3CC[C@H](OCCO)CC3)c2=O)cn1 (10000 nM)	28.7
O=C(NC[C@H](O)CO)c1ccncc1Nc1ccc(I)cc1F [Pimasertib] (1000 nM)	103
Cc1nc(Nc2ncc(C(=O)Nc3c(C)cccc3Cl)s2)cc(N2CCN(CCO)CC2)n1 [Dasatinib] (1000 nM)	5.15
O=C(NC[C@H](O)CO)c1ccncc1Nc1ccc(I)cc1F [Pimasertib] (10000 nM)	105
COc1cc(CCc2cc(NC(=O)c3ccc(N4CC(C)NC(C)C4)cc3)n[nH]2)cc(OC)c1 (centres undefined) [AZD4547] (100 nM)	94
COc1nc(N)nc2c1ncn2[C@@H]1O[C@H](CO)[C@@H](O)[C@@H]1O [Nelarabine] (1000 nM)	107
Cn1cc(CNCC2CCN(c3ncc(C(=O)NO)cn3)CC2)c2ccccc21 [Quisinostat] (1000 nM)	9.9

* * *

Test system: HCC1599
TEST_DESCRIPTION: normalised viability (% of control), CellTiter-Blue; higher = more viable cells (about 100 = DMSO control)
CONDITION_NOTES: 1000 nM; incubation time: 72 h
Reported normalised viability is given for each of the following compounds.

COMPOUND	normalised viability, %
CC[C@@]1(O)C(=O)OCc2c1cc1n(c2=O)Cc2cc3c(CN(C)C)c(O)ccc3nc2-1 [Topotecan]	64
Cc1c(CN2CCN(C(=O)[C@H](C)O)CC2)sc2c(N3CCOCC3)nc(-c3cnc(N)nc3)nc12 [GDC-0980]	39.7
CS(=O)(=O)N1CCN(Cc2cc3nc(-c4cccc5[nH]ncc45)nc(N4CCOCC4)c3s2)CC1 [GDC-0941]	55

* * *

System: MCF-10A
TEST_DESCRIPTION: normalised response (% of control), CellTox Green; higher = less cell death (100 = DMSO, 0 = benzethonium chloride kill control)
CONDITION_NOTES: incubation time: 72 h

COMPOUND	normalised response
Cc1nc(Nc2ncc(C(=O)Nc3c(C)cccc3Cl)s2)cc(N2CCN(CCO)CC2)n1 [Dasatinib] (100 nM)	112%
C[C@]12C=CC(=O)C=C1CC[C@@H]1[C@@H]2[C@@H](O)C[C@@]2(C)[C@H]1CC[C@]2(O)C(=O)CO [Prednisolone] (100 nM)	95.5%
Nc1ccccc1NC(=O)c1ccc(CNc2nccc(-c3cccnc3)n2)cc1 [Mocetinostat] (10000 nM)	84%
C[C@]12C=CC(=O)C=C1CC[C@@H]1[C@@H]2[C@@H](O)C[C@@]2(C)[C@H]1CC[C@]2(O)C(=O)CO [Prednisolone] (10000 nM)	100%
O=S(=O)(c1cccc2cnccc12)N1CCCNCC1 [Fasudil] (50000 nM)	87.7%
CC[C@@]1(O)C(=O)OCc2c1cc1n(c2=O)Cc2cc3c(CN(C)C)c(O)ccc3nc2-1 [Topotecan] (100 nM)	106%
